# key: entry, value: pIC50
Target: MMP-1 (Homo sapiens, UniProt P03956)
Sequence (P03956 100-469): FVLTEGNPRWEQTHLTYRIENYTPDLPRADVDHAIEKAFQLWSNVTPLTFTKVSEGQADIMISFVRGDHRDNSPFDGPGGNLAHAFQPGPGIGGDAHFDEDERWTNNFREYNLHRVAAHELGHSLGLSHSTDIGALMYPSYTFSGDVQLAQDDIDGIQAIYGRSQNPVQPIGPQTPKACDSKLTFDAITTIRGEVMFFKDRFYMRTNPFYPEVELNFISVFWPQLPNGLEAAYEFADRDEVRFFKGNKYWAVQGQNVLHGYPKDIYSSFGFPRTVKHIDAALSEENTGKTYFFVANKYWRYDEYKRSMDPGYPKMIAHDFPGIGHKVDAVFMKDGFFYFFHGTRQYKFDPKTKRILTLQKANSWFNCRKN
Assay: MMP-1 inhibition (thiopeptide or fluorescent peptide substrate assay)
Assay type: biochemical
Settings: read-out: MMP-1 IC50
pIC50: −log10 of the molar value. Counter-ions that a name gives are not always drawn.
test readout: pIC50

INSERT INTO results (molecule, value_qualifier, result) VALUES
  ('CCOc1ccc(S(=O)(=O)N(Cc2ccccc2)c2c(C)cc(C)cc2C(=O)NO)cc1', '=', 6.54),
  ('COc1ccc(S(=O)(=O)N(Cc2ccccc2)c2c(OCc3ccc(C(=O)NO)cc3)cccc2C(=O)NO)cc1', '<', 6.30),
  ('COc1ccc(S(=O)(=O)N(Cc2ccccc2)c2c(C(=O)NO)ccc(Cl)c2C)cc1', '=', 6.50),
  ('COc1ccc(S(=O)(=O)N(Cc2cccnc2)c2c(C)cc(-c3cccc([N+](=O)[O-])c3)cc2C(=O)NO)cc1 [Example 400, hydrochloride salt]', '=', 6.53),
  ('CCN(CC)Cc1cc(C)c(N(Cc2ccccc2)S(=O)(=O)c2ccc(OC)cc2)c(C(=O)NO)c1', '=', 5.98),
  ('COc1ccc(S(=O)(=O)N(Cc2cccnc2)c2c(CN3CCCC3)cccc2C(=O)NO)cc1', '=', 5.66),
  ('COc1ccc(S(=O)(=O)N(Cc2ccccc2)c2c(Cl)cccc2C(=O)NO)cc1', '=', 6.40);

----------
Target: MMP-1 (Homo sapiens)
Assay: MMP-1 inhibition (thiopeptide or fluorescent peptide substrate assay)
Assay type: biochemical
Details: read-out: MMP-1 IC50
pIC50: −log10 of the molar value. Counter-ions that a name gives are not always drawn.
Classify by measured pIC50: Criterion met if it is equal to or exceeds 7, Criterion not met if it is smaller.

INSERT INTO assay_data (compound, assigned_label) VALUES
  ('COc1ccc(S(=O)(=O)N(Cc2cccnc2)c2c(C)cc(-c3ccco3)cc2C(=O)NO)cc1 [Example 255]', 'Criterion met'),
  ('COc1ccc(S(=O)(=O)N(Cc2cccnc2)c2c(C)cc(-c3ccc(OC(F)(F)F)cc3)cc2C(=O)NO)cc1 [Example 404, hydrochloride salt]', 'Criterion not met'),
  ('CCN(c1c(C)cc(C)cc1C(=O)NO)S(=O)(=O)c1ccc(OC)cc1 [Example 131]', 'Criterion not met'),
  ('COc1ccc(S(=O)(=O)N(Cc2ccccc2)c2c(OCCCCC(=O)NO)cccc2C(=O)NO)cc1 [Example 59]', 'Criterion not met'),
  ('COc1ccc(S(=O)(=O)N(Cc2ccccc2)c2ccccc2C(=O)NO)cc1 [Example 23]', 'Criterion not met');
